Test system: RARb homodimer (NR concentration 270 nM)
Assay: PBM binding z-score (relative to random genomic background probes); higher = stronger binding; sequences stand for … in GC…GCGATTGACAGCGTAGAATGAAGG
Label FALSE if PBM binding z-score falls below 2; label TRUE in every other case.

Below are worked cases with known answers.
| seq | tested target | label class |
| --- | --- | --- |
| AGAATGAGGTTATCAAAGATCAGGGAAACGCTTG | RARb homodimer (NR concentration 270 nM) | FALSE |
| GCATATAGGTAATACAAGTTGAAAGTCCGATTGT | RARb homodimer (NR concentration 270 nM) | FALSE |

Threshold query (PBM binding z-score >= 2) on ATACCAAGGTGATCGTGAGGTCGTCGATACTAAC
FALSE

Threshold query (PBM binding z-score >= 2) on GCTAGTTAGTCAGTAAAAGGTCACACACCGGTCG
TRUE

---

Tested on: PPARg:RXRa 30nM:10nM, anti-RXR (NR concentration 30 nM, RXRa partner concentration 10 nM)
Test: PBM binding z-score (relative to random genomic background probes); higher = stronger binding; sequences stand for … in GC…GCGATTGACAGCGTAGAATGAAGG
readout label: PBM binding z-score
// return just the number, without any unit appended

| seq | test value |
| --- | --- |
| CGAACTAGGTCATCCAGGATAGTGAATACATTGA | 3.48 |
| CTTGCTAGGTCATGGTCAGCTAATCTACAGTATG | 1.34 |
| AGAATAAGGTTATACGTAGATCAGGGAAGAAAGT | 0.895 |

Lab note: next sequence to report on.
Look up PBM binding z-score: ACAAGCAGGCCAAGTTTGGGTCACTCAAACAAAG
-0.289

---

Test system: RARg:RXRa (NR concentration 270 nM, RXRa partner concentration 90 nM)
Assay: PBM binding z-score (relative to random genomic background probes); higher = stronger binding; sequences stand for … in GC…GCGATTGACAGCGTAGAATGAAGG
readout label: PBM binding z-score
// return just the number, without any unit appended

# example entries with known answers
| seq | PBM binding z-score |
| --- | --- |
| TAGCCTGGGTCATTGGGCCAGTATAGTACGCATC | 3.67 |
| TCGAGTAGGTTAGTCGGGGCATTTAGCCAACATA | 0.175 |
| CCGACTGGGGCATAGGGTTACCATAAGCCAGCCC | 1.34 |

Lab note: next sequence to report on.
Look up PBM binding z-score: GCGACTGGGGCTTCAGCAGGTTACCATAACTTAA
-0.404

---

In this section, each of the sequences is paired with its reported PBM binding z-score.
System: RARb homodimer (NR concentration 270 nM)
Assay: PBM binding z-score (relative to random genomic background probes); higher = stronger binding; sequences stand for … in GC…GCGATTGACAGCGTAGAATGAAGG
// return just the number, without any unit appended

# example entries with known answers
| seq | PBM binding z-score |
| --- | --- |
| ATCTGTAGGTAAAAGTTCAGTGAATCCCGAGGAT | 2.42 |
| GCATATAGGTAATACAATGTGAAAGTCCGATTGT | -0.3 |
| GCAGATAGGTAATACAAGGTGAAAGTCCGATTGT | 0.807 |
| CCTCGGAGGACAGAAGGTCGGAGCTGTCCGCTTT | 1.03 |
| CCTCGGAGGACAACAGGAGGTCAGACCTGCCAGA | 3.55 |
| CAAACTAGGTCAAGACGTCAAAGTCCGCTTCCCG | 3.2 |
| GATACAGGGTCAGCTAGTGGCCAGAGTATGGAAA | 2.79 |
| AGTCAAAGTTCAGGACGAGCTAACGTAAAGCACG | 2.77 |
| TTACCAAGGTGAAGGTTGTTGATCCCTCTGTAGA | 1.02 |
| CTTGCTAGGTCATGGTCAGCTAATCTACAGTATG | 3.07 |

Look up PBM binding z-score: ATCTCTACGTAAAGTTCAGTGAAAGATCGATAGA
2.6

Look up PBM binding z-score: ACTTGCAGGCCAAGTTTGGGTCACTCAAACAAAG
2.46
